Ref: ChEMBL document CHEMBL1157434

Each entry below lists one item and its recorded Ki value.
- METHOD NOTES: Inhibition of Bacillus licheniformis beta-lactamase BS3 in 25 mM acetate buffer at pH 5
A number alone suffices; assume mM.

COMPOUND: O=C(O)CC(C(=O)O)C(O)C(=O)O (configuration not stated) [ISOCITRATE]
SCALE UNIT: mM
Ki: 2.2

Query :: Return Ki (reported value) for this compound: O=C(O)CC(O)(CC(=O)O)C(=O)O [CITRIC ACID]
Result :: 0.49

----------
Each entry below carries its reported Ki.
- METHOD NOTES: Inhibition of beta-lactamase TEM1 in 25 mM acetate buffer at pH 5
Give the number; µM is assumed, so skip it.

The following compounds have reported results that may help.
COMPOUND: O=C(O)CC(O)(CC(=O)O)C(=O)O
SCALE UNIT: µM
REPORTED VALUE: 730

COMPOUND: NC(CC(=O)O)(CC(=O)O)C(=O)O
SCALE UNIT: µM
REPORTED VALUE: 150

Kindly review the next compound as well.
Query :: Specify Ki for O=C(O)CC(C(=O)O)C(O)C(=O)O (stereo not drawn) [ISOCITRATE] and stop.
Result :: 1500
